In this section we review reported protein stability index values for a set of variants.
B1: SASS6 (parent)
chain: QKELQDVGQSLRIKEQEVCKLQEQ

# Variants of: B1
# Test Details: protein stability index of a GFP-peptide fusion (GPS, HEK-293T) (PSI 1-6); higher = more stable;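 also: lentivirally expressed fusions sorted by FACS into six bins by GFP to DsRed ratio, PSI derived from sequencing read proportions per bin multiplied by bin number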
# Test Settings: c terminus: a fixed tail appended
Respond using a number only.

Lookup result for E17T ; measured protein stability index: 4.95

The variant identified as V7Q registered its protein stability index at 5.82

Sure, the documented protein stability index for S10L is 5

Recorded result, L11M , protein stability index: 5.6

For record L21S the listed protein stability index is 5.27

GET /value?item= E3P &field=protein stability index returns 3.71

Measured protein stability index of V7Y : 5.18

So for K14P , the logged protein stability index turned out to be 4.73

// protein stability index value for D6S : 4.91

The value of protein stability index measured for the variant K14D turned out to be 5.63

Lab note: measured protein stability index of C19I was 4.35

variant C19W , protein stability index observed: 4.59

Sure, the documented protein stability index for K2F is 4.02
